- Test system: SNB-75 CNS
- METHOD DESCRIPTION: NCI-60 one-dose screen, 48 h (100 = growth as untreated, 0 = no growth, -100 = all killed)
- COND: 10 µM unless noted
About 83,000 compounds went through this panel and 20% of them were active in at least one assay; those are over-represented in the sample as a whole.
The label Y is reserved for growth strictly under 80%; N covers values equal to or above it.

In the record for COc1ccc(-c2nc(SCC(=O)Nc3nc(-c4ccccc4)cs3)[nH]c(=O)c2C#N)cc1 , is growth less than 80%?
Y

Repeat with CCCc1cc2c(=O)c(C(=O)OC)c[nH]c2cc1N(CC)CC
N

Repeat with COC(=O)CCC1=C(C)C2=NC1=CC1=NC(=CC3=NC(=Cc4[nH]c(/c(=C(/C)O)c4C)=C2)C(C(C)=O)=C3C)C(C)=C1CCC(=O)OC
N

Repeat with COc1ccc(OC)c2c1[nH]c(=O)c1c3ncccc3cn21
Y

Repeat with CC/C=C1/C(=O)C=C[C@@H]1C/C=C\CCCC(=O)O
N

Repeat with Cc1cc(NCCCCNc2ccnc3cc(Cl)ccc23)nc(Nc2ccc(C(=O)N3CCCC3)cc2)n1
Y

Repeat with O=[N+]([O-])c1ccc(C2CC(c3ccccc3)=Nc3ccccc3S2)cc1 (centres undefined)
Y

Repeat with N=C1C(c2nc(-c3ccc(Br)cc3)cs2)=C(O)CN1Cc1cccnc1
Y

Repeat with CS(=O)(=O)c1ccc(Nc2nc(N[C@H]3CCCC[C@H]3N)nc3cc[nH]c(=O)c23)cc1
Y

Repeat with COc1cc(/C=C/C(=O)N2CCN(C(=O)c3cc(OC)c(OC)c(OC)c3)CC2)ccc1OCCCN1C(=O)c2cccc3cccc(c23)C1=O
N

Repeat with O=C(c1ccccc1)c1c(/C=C/c2ccccc2)nc2ccccc2c1/C=C/c1ccc(Br)cc1
N

Repeat with Cc1cc(NCc2cc(Nc3ccnc4cc(Cl)ccc34)ccc2F)nc(N2CCOCC2)n1
Y

Repeat with N#Cc1c(N)nn(C(=O)c2ccc(NC(=O)c3ccccn3)cc2)c1-c1ccc(Cl)cc1
Y

Repeat with Cc1cc(C)c2c(-c3nnc(N)s3)cc(=O)oc2c1
N

Repeat with Cc1cc[c-]cc1.Fc1c[c-]c(-c2ccccn2)c(F)c1.[Pt+2].c1ccc(P(C[PH+](c2ccccc2)c2ccccc2)c2ccccc2)cc1
Y

Repeat with N=c1sc(Cc2ccc(Cl)cc2)cn1CC(=O)c1ccc(F)cc1
N

Repeat with COc1ccc2c(c1)O/C(=C\c1cccc(OCC(=O)Nc3nc(C)c(C)s3)c1)C2=O
Y

Repeat with CN(c1ccccc1)c1ccc2c(c1)OCCC21CC1Nc1cnccc1C(=O)O (centres undefined)
Y

Repeat with COc1ccccc1NC(=O)N/C(N)=N/c1nc2ccccc2s1
Y

###

- Test system: COLO 205 colon
- METHOD DESCRIPTION: NCI-60 one-dose screen, 48 h
- COND: 10 µM unless noted
- Procedure: Cells are grown in 96 well plates and exposed to the test compound for 48 hours. Compounds are tested at a single concentration, which is 10^-5 M for most compounds. The reported endpoint is percent growth (GI% or GIPRCNT), where numbers from 0 - 100% represent growth inhibition, and numbers from -100% - 0 represent cell death. For example, a value of 40 represents 60% growth inhibition. A value of 0 means no net growth occurred over the course of the experiment. […]
The panel holds about 83,000 compounds, 20% with a hit somewhere; the sample as a whole holds those more often. Calls of active or inactive are those of the source. How the source made its calls: active means growth percent below 10; inactive means the rest.
Thanks in advance; please answer with one of these: Yes for active, No for inactive

Could you kindly confirm the outcome this assay logged for O=C1CCc2c(sc3[nH]c(=S)n(-c4ccc(OC(F)(F)F)cc4)c(=O)c23)C1 ?
No

Repeat with COc1cc(-c2n/c(=C\c3c(O)[nH]c4ccc(Cl)cc34)cc3c2=Nc2ccccc2-3)cc(OC)c1OC
Yes

Repeat with Fc1cnc(NC2CC2)nc1-c1cnc2ccc(N3CCOCC3)cn12
Yes

Repeat with N#CC1=C(/N=C/c2ccccc2)Oc2c(ccc3ccccc23)C1c1ccccc1 (centres undefined)
Yes

Repeat with CC1=C(SCCC(=O)OC(C[Se]C2=C(C)C(=O)c3ccccc3C2=O)C(=O)NCCCCCC(=O)OCc2ccccc2)C(=O)c2ccccc2C1=O (centres undefined)
No

Repeat with COc1ccc(-c2nc(SCC(=O)Nc3nc(-c4ccccc4)cs3)[nH]c(=O)c2C#N)cc1
No

Repeat with Cc1cc(Cl)ccc1Nc1nc(C(F)(F)F)ccc1C(=O)N/N=C/c1ccc(N(C)C)cc1
No

Repeat with CNS(=O)(=O)c1n[nH]nc1-c1cc(C(C)(C)C)c(O)c(C(C)(C)C)c1
No

Repeat with c1c[nH]c(CNC2CCCCC2)c1
No

The reported measurements were obtained from PubChem BioAssay (NCI).
